Entries and their composite z-score values follow.
Target: Neurogenic locus notch homolog protein 3 (Homo sapiens) (UniProt Q9UM47)
Sequence (Q9UM47 whole entry, looked up): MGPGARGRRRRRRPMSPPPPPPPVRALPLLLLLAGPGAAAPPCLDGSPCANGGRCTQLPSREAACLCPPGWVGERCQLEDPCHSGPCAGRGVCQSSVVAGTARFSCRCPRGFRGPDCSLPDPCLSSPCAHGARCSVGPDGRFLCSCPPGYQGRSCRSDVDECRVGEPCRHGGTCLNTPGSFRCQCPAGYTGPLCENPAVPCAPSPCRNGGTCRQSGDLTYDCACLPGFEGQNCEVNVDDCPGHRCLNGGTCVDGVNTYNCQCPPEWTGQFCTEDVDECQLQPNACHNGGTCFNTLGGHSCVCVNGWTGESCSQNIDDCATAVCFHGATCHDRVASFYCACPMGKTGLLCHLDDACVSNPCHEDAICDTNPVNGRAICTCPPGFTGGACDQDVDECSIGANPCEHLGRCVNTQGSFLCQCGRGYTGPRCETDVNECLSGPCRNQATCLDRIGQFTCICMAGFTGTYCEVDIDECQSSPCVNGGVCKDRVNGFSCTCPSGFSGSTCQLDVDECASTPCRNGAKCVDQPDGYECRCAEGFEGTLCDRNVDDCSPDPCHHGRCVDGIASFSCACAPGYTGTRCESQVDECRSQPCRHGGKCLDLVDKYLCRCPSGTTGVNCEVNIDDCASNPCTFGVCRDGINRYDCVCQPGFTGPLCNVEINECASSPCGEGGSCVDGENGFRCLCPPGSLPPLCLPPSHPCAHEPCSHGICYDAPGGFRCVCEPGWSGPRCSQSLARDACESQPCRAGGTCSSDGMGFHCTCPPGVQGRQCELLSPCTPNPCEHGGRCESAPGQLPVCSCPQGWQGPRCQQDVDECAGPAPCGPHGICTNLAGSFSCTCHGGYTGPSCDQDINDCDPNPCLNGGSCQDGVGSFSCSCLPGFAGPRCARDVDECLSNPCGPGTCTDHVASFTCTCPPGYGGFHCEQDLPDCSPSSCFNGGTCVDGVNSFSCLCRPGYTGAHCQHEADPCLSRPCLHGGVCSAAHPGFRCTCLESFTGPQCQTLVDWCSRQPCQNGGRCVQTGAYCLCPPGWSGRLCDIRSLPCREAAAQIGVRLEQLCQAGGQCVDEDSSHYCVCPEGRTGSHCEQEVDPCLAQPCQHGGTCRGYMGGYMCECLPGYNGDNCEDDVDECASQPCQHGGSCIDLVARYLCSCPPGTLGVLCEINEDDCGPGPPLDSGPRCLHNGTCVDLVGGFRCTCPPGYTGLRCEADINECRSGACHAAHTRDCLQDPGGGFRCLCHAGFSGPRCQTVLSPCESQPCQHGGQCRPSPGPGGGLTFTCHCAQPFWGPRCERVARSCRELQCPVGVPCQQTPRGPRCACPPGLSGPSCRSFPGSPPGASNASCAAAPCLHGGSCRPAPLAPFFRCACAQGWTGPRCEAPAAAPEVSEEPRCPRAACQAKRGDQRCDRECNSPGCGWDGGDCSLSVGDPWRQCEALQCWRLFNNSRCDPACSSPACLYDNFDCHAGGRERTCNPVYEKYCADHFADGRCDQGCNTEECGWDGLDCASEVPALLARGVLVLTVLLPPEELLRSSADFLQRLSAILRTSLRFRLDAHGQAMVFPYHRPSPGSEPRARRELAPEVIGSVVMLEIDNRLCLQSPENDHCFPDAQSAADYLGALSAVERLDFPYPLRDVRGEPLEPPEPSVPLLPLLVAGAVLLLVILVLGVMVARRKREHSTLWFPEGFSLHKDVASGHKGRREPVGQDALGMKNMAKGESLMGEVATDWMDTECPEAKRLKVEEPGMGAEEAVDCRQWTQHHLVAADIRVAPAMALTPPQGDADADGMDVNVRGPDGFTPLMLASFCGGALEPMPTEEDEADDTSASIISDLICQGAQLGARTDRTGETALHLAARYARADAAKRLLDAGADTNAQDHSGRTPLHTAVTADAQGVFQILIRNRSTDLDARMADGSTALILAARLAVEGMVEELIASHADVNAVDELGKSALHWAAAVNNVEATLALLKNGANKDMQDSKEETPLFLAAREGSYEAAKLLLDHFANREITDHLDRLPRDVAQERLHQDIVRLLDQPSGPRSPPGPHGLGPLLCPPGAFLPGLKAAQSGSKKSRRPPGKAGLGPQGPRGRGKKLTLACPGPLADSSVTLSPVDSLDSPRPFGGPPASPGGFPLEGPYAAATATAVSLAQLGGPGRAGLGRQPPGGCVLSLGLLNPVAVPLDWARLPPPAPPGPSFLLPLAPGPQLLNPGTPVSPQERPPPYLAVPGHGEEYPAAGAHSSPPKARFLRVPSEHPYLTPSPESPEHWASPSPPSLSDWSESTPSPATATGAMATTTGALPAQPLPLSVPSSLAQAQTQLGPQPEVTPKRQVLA
Test: NOTCH3 binders on small-molecule microarray, primary screen, biochemical, 635/667 nm fluorescence (AID 1096)
Conditions: NOTCH3 binding, 635 nm fluorescence, higher = more signal
Just the number.

SMILES REPR | TEST SYSTEM | composite z-score
Cc1ccc(S[C@]2(C(=O)NC(C)C)CC(=O)N(Cc3ccccc3)[C@@H]2c2ccc(CO)cc2)cc1 | Neurogenic locus notch homolog protein 3 (Homo sapiens) (UniProt Q9UM47) | -0.312
COCCOC(=O)N1C(=O)[C@@]2(c3cc(C#CC4(O)CCCCCC4)ccc31)[C@H](C(N)=O)[C@H]1C(=O)O[C@H](c3ccccc3)[C@H](c3ccccc3)N1[C@@H]2c1ccc(OCCO)cc1 | Neurogenic locus notch homolog protein 3 (Homo sapiens) (UniProt Q9UM47) | 1.09

Next up:
Incoming: Need composite z-score of "COC(=O)[C@@]1(Cc2ccc(F)cc2)[C@H]2c3cc(C(=O)N(C)C)n(Cc4ccc(C(F)(F)F)nc4)c3C[C@H]2CN1C(=O)c1ccccc1" , thanks.
Outgoing: 1.02
